target: AChE (Rattus norvegicus, UniProt P37136); construct: AChE was derived from the SD rat brains by homogenizing the brain with 20-fold saline solution; from tissue; host or cells: SD rat brain homogenate (supernatant after 800 x g); test: In vitro AChE inhibitory assay (Ellman's method); type: biochemical; details: AChE from SD rat brain homogenate; ASCh substrate; 60 min, 37 °C; read-out: IC50(μM) AChE
Sequence (P37136 32-614): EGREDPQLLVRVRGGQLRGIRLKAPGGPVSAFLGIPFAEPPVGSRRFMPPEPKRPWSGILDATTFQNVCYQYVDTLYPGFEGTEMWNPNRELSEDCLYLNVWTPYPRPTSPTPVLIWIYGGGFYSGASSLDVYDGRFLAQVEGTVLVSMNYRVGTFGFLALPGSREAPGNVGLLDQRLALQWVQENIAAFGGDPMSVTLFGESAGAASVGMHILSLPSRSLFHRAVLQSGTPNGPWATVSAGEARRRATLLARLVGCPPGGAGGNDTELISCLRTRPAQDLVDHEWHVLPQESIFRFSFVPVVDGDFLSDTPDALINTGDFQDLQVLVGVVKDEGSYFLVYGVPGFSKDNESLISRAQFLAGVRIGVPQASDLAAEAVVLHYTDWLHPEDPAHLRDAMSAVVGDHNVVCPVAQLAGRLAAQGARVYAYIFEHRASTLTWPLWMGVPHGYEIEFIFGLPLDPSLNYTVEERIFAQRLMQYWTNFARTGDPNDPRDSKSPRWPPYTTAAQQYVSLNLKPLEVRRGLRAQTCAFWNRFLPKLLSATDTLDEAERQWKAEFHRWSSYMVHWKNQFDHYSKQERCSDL
Hi! Could you tag entries with IC50 below 10 µM as class 1, and those at or above as class 0? Much appreciated.

Determine if "CN(CCC(=O)c1ccc(-c2ccc(C(=O)CCN(C)Cc3ccccc3)cc2)cc1)Cc1ccccc1" shows IC50 strictly lower than 10 µM. class 1

Queued: "O=C(COCCN1CCCCC1)c1ccc(-c2ccc(C(=O)OCCN3CCCCC3)cc2)cc1" class 0

Queued: "CC(C)(c1ccc(C(=O)CN2CCCCC2)cc1)c1ccc(C(=O)CN2CCCCC2)cc1" class 0

Queued: "O=C(CCN1CCCCC1)c1ccc(Sc2ccc(C(=O)CCN3CCCCC3)cc2)cc1" class 1

Queued: "CN(C)CCC(=O)c1ccc(C(C)(C)c2ccc(C(=O)CCN(C)C)cc2)cc1" class 1

Queued: "CN(C)CC(=O)c1ccc(C(C)(C)c2ccc(C(=O)CN(C)C)cc2)cc1" class 0

Queued: "CC1CCN(CC(=O)c2ccc(-c3ccc(C(=O)CN4CCC(C)CC4)cc3)cc2)CC1" class 0

Queued: "CC(C)(c1ccc(C(=O)CCN2CCOCC2)cc1)c1ccc(C(=O)CCN2CCOCC2)cc1" class 0

Queued: "O=C(CCN1CCCCC1)c1ccc([S+]([O-])c2ccc(C(=O)CCN3CCCCC3)cc2)cc1" class 0

Queued: "O=C(CCN1CCC(N2CCCCC2)CC1)c1ccc(-c2ccc(C(=O)CCN3CCC(N4CCCCC4)CC3)cc2)cc1" class 1

Queued: "O=C(CCN1CCOCC1)c1ccc(Cc2ccc(C(=O)CCN3CCOCC3)cc2)cc1" class 1

Queued: "O=C(CCCCN1CCC1)c1ccc(CCc2ccc(C(=O)CCCCN3CCC3)cc2)cc1" class 0

Queued: "O=C(CN1CCCCC1)c1ccc(CCc2ccc(C(=O)CN3CCCCC3)cc2)cc1" class 0

Queued: "CN(C)CCC(=O)c1ccc(Cc2ccc(C(=O)CCN(C)C)cc2)cc1" class 1

Data provenance is paper PMC6152156.
